// data source = ChEMBL document CHEMBL1255350

assay: AUC (0 to 24 hrs) in CSF of patient with intracerebral and leptomeningeal tuberculosis at 400 […], po QD measured on day 3; type: ADME, organism-based, Cerebrospinal fluid; parameters: time < 24 hr, dose 400 mg/kg, route oral; details: human
reported-metric: AUC at 24 h

Can you share its AUC at 24 h? I mean this compound: COc1c(N2C[C@@H]3CCCN[C@@H]3C2)c(F)cc2c(=O)c(C(=O)O)cn(C3CC3)c12
8400 ng·h/mL

* * *

test: AUC (0 to 24 hrs) in plasma of patient with intracerebral and leptomeningeal tuberculosis at 400 […], po QD measured on day 3; assay type: ADME, organism-based; design: time < 24 hr, route oral; settings: human
reported-metric: AUC at 24 h (ng·h/mL)
# unit: ng·h/mL | format: bare number

Can you share its AUC at 24 h? I mean this compound: COc1c(N2C[C@@H]3CCCN[C@@H]3C2)c(F)cc2c(=O)c(C(=O)O)cn(C3CC3)c12
8900

* * *

assay: AUC (0 to 24 hrs) in CSF of patient with intracerebral and leptomeningeal tuberculosis at 800 […], po QD measured on day 3; type: ADME, organism-based, Cerebrospinal fluid; design: time < 24 hr, route oral; conditions: human
reported-metric: AUC at 24 h (ng·h/mL)
# unit: ng·h/mL | format: bare number

Can you share its AUC at 24 h? I mean this compound: COc1c(N2C[C@@H]3CCCN[C@@H]3C2)c(F)cc2c(=O)c(C(=O)O)cn(C3CC3)c12 [MOXIFLOXACIN]
14300

* * *

experiment: Cmax in CSF of patient with intracerebral and leptomeningeal tuberculosis at 400 […], po QD measured on day 3; format: ADME, organism-based, Cerebrospinal fluid; parameters: route oral; details: human
reported-metric: Cmax (ng/mL)
# unit: ng/mL | format: bare number

Can you share its Cmax? I mean this molecule: COc1c(N2C[C@@H]3CCCN[C@@H]3C2)c(F)cc2c(=O)c(C(=O)O)cn(C3CC3)c12
616

* * *

assay: Cmax in plasma of patient with intracerebral and leptomeningeal tuberculosis at 400 […], po QD measured on day 3; assay type: ADME, organism-based; parameters: route oral; conditions: human
reported-metric: Cmax (ng/mL)
# unit: ng/mL | format: bare number

Can you share its Cmax? I mean this compound: COc1c(N2C[C@@H]3CCCN[C@@H]3C2)c(F)cc2c(=O)c(C(=O)O)cn(C3CC3)c12 [MOXIFLOXACIN]
1060

* * *

assay: Cmax in CSF of patient with intracerebral and leptomeningeal tuberculosis at 800 […], po QD measured on day 3; type: ADME, organism-based, Cerebrospinal fluid; parameters: route oral; conditions: human
reported-metric: Cmax (ng/mL)
# unit: ng/mL | format: bare number

Can you share its Cmax? I mean this compound: COc1c(N2C[C@@H]3CCCN[C@@H]3C2)c(F)cc2c(=O)c(C(=O)O)cn(C3CC3)c12 [MOXIFLOXACIN]
1420

* * *

assay: Tmax in CSF of patient with intracerebral and leptomeningeal tuberculosis at 400 […], po QD measured on day 3; type: ADME, organism-based, Cerebrospinal fluid; design: route oral; conditions: human
reported-metric: Tmax (h)
# unit: h | format: bare number

Can you share its Tmax? I mean this compound: COc1c(N2C[C@@H]3CCCN[C@@H]3C2)c(F)cc2c(=O)c(C(=O)O)cn(C3CC3)c12
4

* * *

experiment: Tmax in plasma of patient with intracerebral and leptomeningeal tuberculosis at 800 […], po QD measured on day 3; type: ADME, organism-based; design: route oral; conditions: human
reported-metric: Tmax
In your response, put the unit directly after the numeric value.

Can you share its Tmax? I mean this compound: COc1c(N2C[C@@H]3CCCN[C@@H]3C2)c(F)cc2c(=O)c(C(=O)O)cn(C3CC3)c12 [MOXIFLOXACIN]
2 h

* * *

assay: Tmax in plasma of patient with intracerebral and leptomeningeal tuberculosis at 400 […], po QD measured on day 3; assay type: ADME, organism-based; parameters: route oral; details: human
reported-metric: Tmax (h)
# unit: h | format: bare number

Can you share its Tmax? I mean this compound: COc1c(N2C[C@@H]3CCCN[C@@H]3C2)c(F)cc2c(=O)c(C(=O)O)cn(C3CC3)c12 [MOXIFLOXACIN]
2

* * *

assay: AUC (0 to 24 hrs) in plasma of patient with intracerebral and leptomeningeal tuberculosis at 800 […], po QD measured on day 3; assay type: ADME, organism-based; set-up: time < 24 hr, route oral; details: human
reported-metric: AUC at 24 h

Can you share its AUC at 24 h? I mean this compound: COc1c(N2C[C@@H]3CCCN[C@@H]3C2)c(F)cc2c(=O)c(C(=O)O)cn(C3CC3)c12
19400 ng·h/mL
